tested on: K98450-129-R-PDC multicell spheroids, viability; assay: Anticancer human tumor K98450-129-R-PDC patient-derived colon adenocarcinoma cell line growth inhibition [PI3K]; details: second compound 0.316 µM; first compound 0.000316 µM; stronger effect = lower value
endpoint: viability, T/C (%)
Lab book: enter the figure in %, no units written.

# annotated cases, reported viability, T/C shown
[
  {
    "compound": "CC(C)n1nc(-c2ccc3oc(N)nc3c2)c2c(N)ncnc21 + CC(Nc1ncnc2nc[nH]c12)c1cc2cccc(Cl)c2c(=O)n1-c1ccccc1",
    "endpoint": "viability, T/C",
    "recorded measurement": 108
  },
  {
    "compound": "CC(=O)c1c(C)c2cnc(Nc3ccc(N4CCNCC4)cn3)nc2n(C2CCCC2)c1=O + COc1c(OCCCN2CCOCC2)ccc2c3n(c(=NC(=O)c4cnc(N)nc4)nc12)CCN3",
    "endpoint": "viability, T/C",
    "recorded measurement": 59
  }
]

Enquiry: # return recorded viability, T/C for entry CC(C)n1nc(-c2ccc3oc(N)nc3c2)c2c(N)ncnc21 + Cc1nc(NC(=O)N2CCCC2C(N)=O)sc1-c1ccnc(C(C)(C)C(F)(F)F)c1
Return: 95.8

Enquiry: Give the measured viability, T/C for Cn1ncnc1[C@H]1c2n[nH]c(=O)c3cc(F)cc(c23)N[C@@H]1c1ccc(F)cc1 + CC(Nc1ccc2c(c1)OCCn1cc(N3C(=O)OCC3C(F)F)nc1-2)C(N)=O
Return: 90.6

Enquiry: Please list viability, T/C recorded for the compound Cn1ncnc1[C@H]1c2n[nH]c(=O)c3cc(F)cc(c23)N[C@@H]1c1ccc(F)cc1 + Cc1nc(NC(=O)N2CCCC2C(N)=O)sc1-c1ccnc(C(C)(C)C(F)(F)F)c1
Return: 96.5

Enquiry: # return recorded viability, T/C for entry Cn1ncnc1[C@H]1c2n[nH]c(=O)c3cc(F)cc(c23)N[C@@H]1c1ccc(F)cc1 + CC(Nc1ncnc2nc[nH]c12)c1cc2cccc(Cl)c2c(=O)n1-c1ccccc1
Return: 109

----------
Reported viability, T/C values for a set of compounds
test system: K98450-129-R-PDC multicell spheroids, viability; test: Anticancer human tumor K98450-129-R-PDC cell line growth inhibition [PI3K]; conditions: second compound 0.0316 µM; first compound 0.1 µM; stronger effect = lower value;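 further: spheroids exposed to agents for seven days before read-out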
Numbers only; they are read as %.

These recorded examples may help you get a feel for the data.
[
  {
    "compound": "CC(C)n1nc(-c2ccc3oc(N)nc3c2)c2c(N)ncnc21 + Cc1nc(NC(=O)N2CCCC2C(N)=O)sc1-c1ccnc(C(C)(C)C(F)(F)F)c1",
    "target under test": "K98450-129-R-PDC multicell spheroids, viability",
    "recorded measurement": 75.3
  },
  {
    "compound": "CC(C)NCC(C(=O)N1CCN(c2ncnc3c2C(C)CC3O)CC1)c1ccc(Cl)cc1 (configuration not stated) + COc1c(OCCCN2CCOCC2)ccc2c3n(c(=NC(=O)c4cnc(N)nc4)nc12)CCN3",
    "target under test": "K98450-129-R-PDC multicell spheroids, viability",
    "recorded measurement": 114
  },
  {
    "compound": "CC1(C)CCC(CN2CCN(c3ccc(C(=O)NS(=O)(=O)c4ccc(NCC5CCOCC5)c([N+](=O)[O-])c4)c(Oc4cnc5[nH]ccc5c4)c3)CC2)=C(c2ccc(Cl)cc2)C1 + Cc1nc(NC(=O)N2CCCC2C(N)=O)sc1-c1ccnc(C(C)(C)C(F)(F)F)c1",
    "target under test": "K98450-129-R-PDC multicell spheroids, viability",
    "recorded measurement": 101
  },
  {
    "compound": "CC1(C)CCC(CN2CCN(c3ccc(C(=O)NS(=O)(=O)c4ccc(NCC5CCOCC5)c([N+](=O)[O-])c4)c(Oc4cnc5[nH]ccc5c4)c3)CC2)=C(c2ccc(Cl)cc2)C1 + CC(Nc1ncnc2nc[nH]c12)c1cc2cccc(Cl)c2c(=O)n1-c1ccccc1",
    "target under test": "K98450-129-R-PDC multicell spheroids, viability",
    "recorded measurement": 94.7
  },
  {
    "compound": "C=CC(=O)N1CCN(c2nc(=O)n(-c3c(C)ccnc3C(C)C)c3nc(-c4c(O)cccc4F)c(F)cc23)C(C)C1 (configuration not stated) + COc1c(OCCCN2CCOCC2)ccc2c3n(c(=NC(=O)c4cnc(N)nc4)nc12)CCN3",
    "target under test": "K98450-129-R-PDC multicell spheroids, viability",
    "recorded measurement": 99.6
  },
  {
    "compound": "CC1(C)CCC(CN2CCN(c3ccc(C(=O)NS(=O)(=O)c4ccc(NCC5CCOCC5)c([N+](=O)[O-])c4)c(Oc4cnc5[nH]ccc5c4)c3)CC2)=C(c2ccc(Cl)cc2)C1 + CC(Nc1ccc2c(c1)OCCn1cc(N3C(=O)OCC3C(F)F)nc1-2)C(N)=O",
    "target under test": "K98450-129-R-PDC multicell spheroids, viability",
    "recorded measurement": 107
  },
  {
    "compound": "C#Cc1c(F)ccc2cc(O)cc(-c3ncc4c(N5CC6CCC(C5)N6)nc(OCC56CCCN5CC(F)C6)nc4c3F)c12 (configuration not stated) + CC(Nc1ncnc2nc[nH]c12)c1cc2cccc(Cl)c2c(=O)n1-c1ccccc1",
    "target under test": "K98450-129-R-PDC multicell spheroids, viability",
    "recorded measurement": 101
  },
  {
    "compound": "Cn1ncc(Cl)c1-c1cc(C(=O)NC(CN)Cc2cccc(F)c2)sc1Cl (configuration not stated) + COc1c(OCCCN2CCOCC2)ccc2c3n(c(=NC(=O)c4cnc(N)nc4)nc12)CCN3",
    "target under test": "K98450-129-R-PDC multicell spheroids, viability",
    "recorded measurement": 99.8
  },
  {
    "compound": "CCCS(=O)(=O)Nc1ccc(F)c(C(=O)c2c[nH]c3ncc(-c4ccc(Cl)cc4)cc23)c1F + COc1c(OCCCN2CCOCC2)ccc2c3n(c(=NC(=O)c4cnc(N)nc4)nc12)CCN3",
    "target under test": "K98450-129-R-PDC multicell spheroids, viability",
    "recorded measurement": 95.5
  },
  {
    "compound": "CC(=O)c1c(C)c2cnc(Nc3ccc(N4CCNCC4)cn3)nc2n(C2CCCC2)c1=O + CC(Nc1ncnc2nc[nH]c12)c1cc2cccc(Cl)c2c(=O)n1-c1ccccc1",
    "target under test": "K98450-129-R-PDC multicell spheroids, viability",
    "recorded measurement": 86.2
  }
]

Enquiry: Kindly indicate its recorded viability, T/C. Item: C=CC(=O)N1CCN(c2nc(=O)n(-c3c(C)ccnc3C(C)C)c3nc(-c4c(O)cccc4F)c(F)cc23)C(C)C1 (configuration not stated) + CC(Nc1ncnc2nc[nH]c12)c1cc2cccc(Cl)c2c(=O)n1-c1ccccc1
Return: 96.5

Enquiry: Give the reported viability, T/C for this compound. CNC(=O)c1ccc(N2C(=S)N(c3ccc(C#N)c(C(F)(F)F)c3)C(=O)C2(C)C)cc1F + CC(Nc1ccc2c(c1)OCCn1cc(N3C(=O)OCC3C(F)F)nc1-2)C(N)=O
Return: 101

----------
system: K98450-129-R-PDC multicell spheroids, viability; assay: Anticancer human tumor K98450-129-R-PDC cell line growth inhibition [PI3K]; conditions: second compound 0.1 µM; first compound 3.16 µM; stronger effect = lower value;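 further: spheroids exposed to agents for seven days before read-out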
Examples of compounds with documented viability, T/C follow.
Respond with the bare value in %.

[
  {
    "compound": "CC1(C)CCC(CN2CCN(c3ccc(C(=O)NS(=O)(=O)c4ccc(NCC5CCOCC5)c([N+](=O)[O-])c4)c(Oc4cnc5[nH]ccc5c4)c3)CC2)=C(c2ccc(Cl)cc2)C1 + CC(Nc1ccc2c(c1)OCCn1cc(N3C(=O)OCC3C(F)F)nc1-2)C(N)=O",
    "endpoint": "viability, T/C",
    "recorded measurement": 95.2
  },
  {
    "compound": "Cn1ncc(Cl)c1-c1cc(C(=O)NC(CN)Cc2cccc(F)c2)sc1Cl (stereo not given) + CC(Nc1ncnc2nc[nH]c12)c1cc2cccc(Cl)c2c(=O)n1-c1ccccc1",
    "endpoint": "viability, T/C",
    "recorded measurement": 98.1
  },
  {
    "compound": "CCCS(=O)(=O)Nc1ccc(F)c(C(=O)c2c[nH]c3ncc(-c4ccc(Cl)cc4)cc23)c1F + CC(Nc1ccc2c(c1)OCCn1cc(N3C(=O)OCC3C(F)F)nc1-2)C(N)=O",
    "endpoint": "viability, T/C",
    "recorded measurement": 130
  },
  {
    "compound": "C=CC(=O)N1CCN(c2nc(=O)n(-c3c(C)ccnc3C(C)C)c3nc(-c4c(O)cccc4F)c(F)cc23)C(C)C1 (stereo not given) + CC(Nc1ccc2c(c1)OCCn1cc(N3C(=O)OCC3C(F)F)nc1-2)C(N)=O",
    "endpoint": "viability, T/C",
    "recorded measurement": 48.8
  },
  {
    "compound": "CNC(=O)c1ccc(N2C(=S)N(c3ccc(C#N)c(C(F)(F)F)c3)C(=O)C2(C)C)cc1F + COc1c(OCCCN2CCOCC2)ccc2c3n(c(=NC(=O)c4cnc(N)nc4)nc12)CCN3",
    "endpoint": "viability, T/C",
    "recorded measurement": 78.7
  },
  {
    "compound": "CC(C)NCC(C(=O)N1CCN(c2ncnc3c2C(C)CC3O)CC1)c1ccc(Cl)cc1 (stereo not given) + Cc1nc(NC(=O)N2CCCC2C(N)=O)sc1-c1ccnc(C(C)(C)C(F)(F)F)c1",
    "endpoint": "viability, T/C",
    "recorded measurement": 103
  },
  {
    "compound": "C=CC(=O)N1CCN(c2nc(=O)n(-c3c(C)ccnc3C(C)C)c3nc(-c4c(O)cccc4F)c(F)cc23)C(C)C1 (stereo not given) + Cc1nc(NC(=O)N2CCCC2C(N)=O)sc1-c1ccnc(C(C)(C)C(F)(F)F)c1",
    "endpoint": "viability, T/C",
    "recorded measurement": 52.4
  },
  {
    "compound": "C[C@@H](NC(=O)c1ncnc(N)c1Cl)c1ncc(C(=O)Nc2cc(C(F)(F)F)c(Cl)cn2)s1 + Cc1nc(NC(=O)N2CCCC2C(N)=O)sc1-c1ccnc(C(C)(C)C(F)(F)F)c1",
    "endpoint": "viability, T/C",
    "recorded measurement": 112
  },
  {
    "compound": "CC1(C)CCC(Nc2ncc(C(F)(F)F)c(-c3c[nH]c4c(P(C)(C)=O)c(C#N)ccc34)n2)CN1 (stereo not given) + Cc1nc(NC(=O)N2CCCC2C(N)=O)sc1-c1ccnc(C(C)(C)C(F)(F)F)c1",
    "endpoint": "viability, T/C",
    "recorded measurement": 71.1
  }
]

Turning to the following compound.
Enquiry: Provide viability, T/C value for the following compound: CC1(C)CCC(CN2CCN(c3ccc(C(=O)NS(=O)(=O)c4ccc(NCC5CCOCC5)c([N+](=O)[O-])c4)c(Oc4cnc5[nH]ccc5c4)c3)CC2)=C(c2ccc(Cl)cc2)C1 + COc1c(OCCCN2CCOCC2)ccc2c3n(c(=NC(=O)c4cnc(N)nc4)nc12)CCN3
Return: 80.4
